System: CCRIS mutagenicity, Ames/micronucleus/aberration tests
test protocol: CCRIS mutagenicity studies
measurement setup: Test System: AMES SALMONELLA TYPHIMURIUM; Strain/Indicator: TA98; Metabolic Activation: HAMSTER, LIVER, S-9, AROCLOR 1254 (10%); Method: PREINCUBATION
Activity calls are given as the source filed them. How the calls were made is not given here.
Response enum: active, inactive

Before answering, review these 5 worked examples.
# compound, category label
rows = [
    ("CCCCCCCCCCCCCOC(=O)c1ccccc1C(=O)OCCCCCCCCCCCCC", "inactive"),
    ("C=CC[Si](C)(C)C", "inactive"),
    ("CCCCCNCCCCC", "inactive"),
    ("CCCCCCCCCCCCCCC1CO1 (stereo not given)", "inactive"),
    ("[CH3][Hg+]", "inactive"),
]

**Query** Test call, this compound: CCCCCC(N)=O
**Result** inactive

**Query** Test call, this compound: COP(=O)(OC)C(O)C(Cl)(Cl)Cl (stereo not given)
**Result** inactive

====

Tested on: CCRIS mutagenicity, Ames/micronucleus/aberration tests
test protocol: CCRIS mutagenicity studies
measurement setup: Test System: AMES SALMONELLA TYPHIMURIUM; Strain/Indicator: TA97; Metabolic Activation: HAMSTER, LIVER, S-9, AROCLOR 1254 (10%); Method: PREINCUBATION
Active and inactive are the calls of the source. No rule for the calls is given here.
Response enum: label 1 for active, label 0 for inactive

Before answering, review these 4 worked examples.
# compound, assayed system, category label
rows = [
    ("O=Cc1ccccc1Cl", "CCRIS mutagenicity, Ames/micronucleus/aberration tests", "label 0"),
    ("CCNc1cc(O)ccc1C", "CCRIS mutagenicity, Ames/micronucleus/aberration tests", "label 0"),
    ("CCCCCCCCCCCC[S][Sn]([CH2]CCC)([CH2]CCC)[S]CCCCCCCCCCCC", "CCRIS mutagenicity, Ames/micronucleus/aberration tests", "label 0"),
    ("Nc1ccc(Cl)cc1N", "CCRIS mutagenicity, Ames/micronucleus/aberration tests", "label 1"),
]

**Query** Test call, this compound: Nc1ccccc1C(=O)OC/C=C/c1ccccc1
**Result** label 0

**Query** Test call, this compound: Nc1ccc(N)c2c1C(=O)c1c(N)ccc(N)c1C2=O
**Result** label 0

**Query** Test call, this compound: [CH3][Hg+]
**Result** label 0

**Query** Test call, this compound: FC(F)(F)c1ccccc1Cl
**Result** label 0

**Query** Test call, this compound: CCCCNC(=O)n1c(NC(=O)OC)nc2ccccc21
**Result** label 0

**Query** Test call, this compound: C=CC(=O)NCO
**Result** label 0

**Query** Test call, this compound: CC(C)(C)OOC(C)(C)C
**Result** label 0

**Query** Test call, this compound: CCC1NC(=O)c2cc(S(N)(=O)=O)c(Cl)cc2N1 (stereo not drawn)
**Result** label 0

**Query** Test call, this compound: Nc1ccc(F)cc1F
**Result** label 0

====

Tested on: CCRIS mutagenicity, Ames/micronucleus/aberration tests
test protocol: CCRIS mutagenicity studies
measurement setup: Test System: AMES SALMONELLA TYPHIMURIUM; Strain/Indicator: TA98; Metabolic Activation: NONE; Method: PREINCUBATION
The source made the active and inactive calls. The rule behind the calls is not given here.
Response enum: T (active), F (inactive)

Before answering, review these 10 worked examples.
# molecule, category label
data = [
    ("CS(C)(=O)=O", "F"),
    ("O=[N+]([O-])C(Br)(Br)Br", "F"),
    ("COc1ccc(C=O)cc1OC", "F"),
    ("Cc1ccc2c(C)c3ccc4ccccc4c3nc2c1", "T"),
    ("CC(C)O", "F"),
    ("Cc1n[nH]c(=O)[nH]c1=O", "F"),
    ("Nc1ccccc1C(=O)OC1CCCCC1", "F"),
    ("CCC[CH2][Sn]([CH2]CCC)([CH2]CCC)[O][Sn]([CH2]CCC)([CH2]CCC)[CH2]CCC", "F"),
    ("O=C(O)[C@H](O)[C@@H](O)C(=O)O", "F"),
    ("O=[N+]([O-])c1ccc2ccc3c4ccccc4cc4ccc1c2c43", "T"),
]

**Query** Test call, this molecule: O=C1C(Cl)=C(Cl)C(=O)C(Cl)=C1Cl
**Result** F

**Query** Test call, this molecule: CCCC(=O)c1cc(O)c(O)cc1O
**Result** F

**Query** Test call, this molecule: [Cl][Ti]([Cl])[Cl]
**Result** F

**Query** Test call, this molecule: COc1ccc(C(=O)N2CCN(c3ccc4c(c3)CCC(=O)N4)CC2)cc1OC
**Result** F

**Query** Test call, this molecule: CCC(=O)C(C)=O
**Result** F

**Query** Test call, this molecule: CCC1NC(=O)c2cc(S(N)(=O)=O)c(Cl)cc2N1 (stereo not given)
**Result** F

====

Tested on: CCRIS mutagenicity, Ames/micronucleus/aberration tests
test protocol: CCRIS mutagenicity studies
measurement setup: Test System: AMES SALMONELLA TYPHIMURIUM; Strain/Indicator: TA100; Metabolic Activation: RAT, LIVER, S-9, AROCLOR 1254
The source made the active and inactive calls. How the calls were made is not given here.
Response enum: 1 for active, -1 for inactive

Before answering, review these 6 worked examples.
# compound, category label
rows = [
    ("O=C(O)COc1cc(Cl)c(Cl)cc1Cl", -1),
    ("CC(=O)Nc1ccc(CC(=O)O)cc1", -1),
    ("CC(C)NCC(O)COc1cccc2[nH]ccc12 (configuration not stated)", -1),
    ("O=[N+]([O-])c1cc2c3c(c1)CCc1c4c(cc(c1-3)CC2)CCCC4", 1),
    ("Cc1c2c(c(C)c3ccccc13)-c1cccc3cccc-2c13", 1),
    ("O=[N+]([O-])c1ccc2c(ccc3cc4c(ccc5ccccc54)cc32)c1", 1),
]

Alright, here's another compound for you.
**Query** Test call, this compound: CC(C)NCC(O)c1ccc2ccccc2c1 (configuration not stated)
**Result** -1

====

Tested on: CCRIS mutagenicity, Ames/micronucleus/aberration tests
test protocol: CCRIS mutagenicity studies
measurement setup: Test System: AMES SALMONELLA TYPHIMURIUM; Strain/Indicator: TA97; Metabolic Activation: RAT, LIVER, S-9, AROCLOR 1254; Method: PREINCUBATION
Active and inactive are the calls of the source. No rule for the calls is given here.
parameter: mutagenic call

# compound, parameter, measured result
rows = [
    ("O=c1[nH]c(=O)n([C@H]2C[C@H](O)[C@@H](CO)O2)cc1CCCl", "mutagenic call", "inactive; negative"),
    ("C[C@@H]1Cc2c(Cl)cc(C(=O)NC(Cc3ccccc3)C(=O)O)c(O)c2C(=O)O1 (stereo not given in full)", "mutagenic call", "inactive; negative"),
    ("Clc1cc2c(cc1Cl)Oc1cc(Cl)c(Cl)cc1O2", "mutagenic call", "inactive; negative"),
    ("Oc1ccc(O)c(O)c1", "mutagenic call", "inactive; negative"),
]

// below: mutagenic call requested for another compound
**Query** Name the reported mutagenic call value associated with the compound Oc1ccccc1O
**Result** inactive; negative

====

Tested on: CCRIS mutagenicity, Ames/micronucleus/aberration tests
test protocol: CCRIS mutagenicity studies
measurement setup: Test System: AMES SALMONELLA TYPHIMURIUM; Strain/Indicator: TA102; Metabolic Activation: S-9; Method: STANDARD PLATE
The source made the active and inactive calls. How the calls were made is not given here.
Response enum: yes (1) for active, no (0) for inactive

# compound, assayed system, category label
rows = [
    ("COc1ccc(C(=O)N2CCN(c3ccc4c(c3)CCC(=O)N4)CC2)cc1OC", "CCRIS mutagenicity, Ames/micronucleus/aberration tests", "no (0)"),
    ("C=CCc1ccc2c(c1)OCO2", "CCRIS mutagenicity, Ames/micronucleus/aberration tests", "no (0)"),
    ("C=CC#N", "CCRIS mutagenicity, Ames/micronucleus/aberration tests", "no (0)"),
]

**Query** Test call, this compound: O=C1c2cccc(O)c2C(=O)c2c(O)cccc21
**Result** yes (1)

**Query** Test call, this compound: CNC(=O)Oc1ccc2c(c1)[C@]1(C)CCN(C)[C@@H]1N2C
**Result** no (0)

**Query** Test call, this compound: COP(=S)(OC)Oc1ccc(Sc2ccc(OP(=S)(OC)OC)cc2)cc1
**Result** no (0)

**Query** Test call, this compound: CN(N=O)C(=O)c1c(N(C)C(=O)OC(C)(C)C)ncn1C
**Result** yes (1)

====

System: CCRIS mutagenicity, Ames/micronucleus/aberration tests
test protocol: CCRIS mutagenicity studies
measurement setup: Test System: AMES SALMONELLA TYPHIMURIUM; Strain/Indicator: TA1535; Metabolic Activation: NONE
Active and inactive are the calls of the source. No rule for the calls is given here.
Response enum: active, inactive

# molecule, assayed system, category label
data = [
    ("CO[C@@]1(NC(=O)CSC[C@@H](N)C(=O)O)C(=O)N2C(C(=O)O)=C(CSc3nnnn3C)CS[C@@H]21", "CCRIS mutagenicity, Ames/micronucleus/aberration tests", "inactive"),
    ("CCOC(=O)Nc1cccc2c1CN(C)CC2c1ccc(Cl)cc1 (stereo not given)", "CCRIS mutagenicity, Ames/micronucleus/aberration tests", "inactive"),
    ("[Br][Pb][Br]", "CCRIS mutagenicity, Ames/micronucleus/aberration tests", "active"),
    ("CC(C)NCC(O)COc1cccc2[nH]ccc12 (stereo not given)", "CCRIS mutagenicity, Ames/micronucleus/aberration tests", "inactive"),
    ("NC(Cn1ccnc1)C(=O)O (stereo not given)", "CCRIS mutagenicity, Ames/micronucleus/aberration tests", "inactive"),
    ("CCCC(Cl)C(=O)S (stereo not given)", "CCRIS mutagenicity, Ames/micronucleus/aberration tests", "active"),
    ("COc1cc(C(=O)OCCCN2CCCN(CCCOC(=O)c3cc(OC)c(OC)c(OC)c3)CC2)cc(OC)c1OC", "CCRIS mutagenicity, Ames/micronucleus/aberration tests", "inactive"),
    ("CC(C)NCC(O)c1ccc2ccccc2c1 (stereo not given)", "CCRIS mutagenicity, Ames/micronucleus/aberration tests", "inactive"),
    ("CN=NC(C)(C)OO", "CCRIS mutagenicity, Ames/micronucleus/aberration tests", "active"),
]

Alright, here's another molecule for you.
**Query** Test call, this molecule: CC(=O)Nc1ccc(CC(=O)O)cc1
**Result** inactive

The measurements presented in this section are drawn from PubChem BioAssay AID1259407.
